Target: T1, Cynomolgus SLC34A2 (Cynomolgus, UniProt A0A2K5UHY1 1-690)
T1 construct: whole, on cells; also called Cyno SLC34A2
T1 sequence: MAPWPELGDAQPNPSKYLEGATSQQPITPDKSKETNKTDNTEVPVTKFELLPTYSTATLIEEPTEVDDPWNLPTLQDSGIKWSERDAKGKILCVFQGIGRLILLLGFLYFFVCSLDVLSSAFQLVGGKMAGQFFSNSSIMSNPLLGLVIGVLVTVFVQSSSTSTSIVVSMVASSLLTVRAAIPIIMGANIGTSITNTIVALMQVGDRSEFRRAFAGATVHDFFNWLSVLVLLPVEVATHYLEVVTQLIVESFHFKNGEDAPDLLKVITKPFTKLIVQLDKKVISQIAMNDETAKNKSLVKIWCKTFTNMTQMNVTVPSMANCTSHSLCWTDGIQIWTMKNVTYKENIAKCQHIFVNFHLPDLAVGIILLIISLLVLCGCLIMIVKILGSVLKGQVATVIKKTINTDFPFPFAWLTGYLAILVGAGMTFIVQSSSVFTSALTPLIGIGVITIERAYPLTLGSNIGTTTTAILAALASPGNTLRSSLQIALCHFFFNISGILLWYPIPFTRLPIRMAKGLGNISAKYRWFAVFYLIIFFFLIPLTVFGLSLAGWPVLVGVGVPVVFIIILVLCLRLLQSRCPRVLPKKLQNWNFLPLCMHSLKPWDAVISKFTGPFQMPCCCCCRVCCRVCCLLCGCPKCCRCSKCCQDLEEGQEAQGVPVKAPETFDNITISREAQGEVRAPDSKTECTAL
Assay: FACS, cells expressing Cynomolgus SLC34A2
ENDPOINT: Top (MFI)
All answers are understood in MFI, so give the number only.

Example entries begin here.
{"columns": ["BINDER", "Top (MFI)"],
 "data": [
  ["xi63A11D5B4 hIgG1 (antibody, V domains shown, chimeric, hIgG1) VH: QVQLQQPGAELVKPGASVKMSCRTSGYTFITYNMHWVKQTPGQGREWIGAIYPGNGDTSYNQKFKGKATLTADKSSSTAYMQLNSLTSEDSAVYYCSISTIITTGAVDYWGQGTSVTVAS VL: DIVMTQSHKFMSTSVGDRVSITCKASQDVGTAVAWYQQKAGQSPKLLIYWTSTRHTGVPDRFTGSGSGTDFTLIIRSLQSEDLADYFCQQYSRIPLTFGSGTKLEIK", 3510],
  ["xi69B11D8 hIgG1 (antibody, V domains shown, chimeric, hIgG1) VH: EVQLQQSGPELVKPGAAVKISCKTSGYTFTDYTMHWVRQSHGKSLEWIGGIHPNNGGTGYNQKLRGKATLTVDKSSSTAYMELRSLTSDDSAVYYCARGRESDGWFTYWGQGTLVTFSA VL: DVHMTQTTSSLSASLGDRVTITCSASQGIGNSLNWYQQQPDGTVKLLIYYTSRLHSGVPSRFSGSGSGTDYSLTISNLEPEDLATYYCQQYSRFPPTFGGGTKLEIK", 2570]
]}

// next item, Top (MFI) requested
Data request: Give the measured Top (MFI) of xi16E5D10 hIgG1 (antibody, V domains shown, chimeric, hIgG1) VH: QVQLQQPGAELVKPGASVMMSCKASGYTFSNHNLHWLKKTPGQGLDWIGAIYPGNGDTSYNQKFKGRATLTVDKSSNTAYMQFSSLTSEDSAVFYCARGKYGNGAMDYWGQGTAVTVSS VL: DIVMTQSHKFMSTSVGDRVSITCRASQDVGTAVVWYQQKLGQSPKLLFDWASSRHTGVPDRFTGSGSGTDFTLTITDVQSEDLADYFCQQYSRQPLTFGAGTKLELK .
Data returned: 3730

Value source: patent US20240301052A1
